System: S. aureus (ATCC 6538)
PROTOCOL TEXT: microbe, parasite or virus in culture
Assay type: cell-based, Staphylococcus aureus
CONDITION NOTES: planktonic S. aureus ATCC 6538; 37 °C; nine repeats of three independent experiments
Bridge positions count the residues as written; N and C are the ends. Ends that are not written are not given here.
Below, each entry is listed with its recorded MIC.
A number alone suffices; assume µM.

Guide cases for MIC, answers given:
* GLLSGVLGAGKKIVAGLSGRA [Peptide 1924-A] | 128
* GLLRGVLGAGKKIVCGLSGRC (disulfide 15-21 (inferred)) [Peptide 2057-C, N-terminus modified analogue of Nigrosin-6VL] | 128

Continue with the next substance.
stdin: Specify measured MIC for GLLSGVLGAGKKIVCGLSGR- [Peptide 1885-R, Rana Box modified analogue of Nigrosin-6VL] .
stdout: 128

The reported measurements were obtained from paper PMC11274128.
